tested on: HCI-027 (organoid from a triple-negative breast cancer xenograft); assay: CTG-3D luminescence at 96 h relative to day-0 seeding control (ratio to day 0); higher = more growth / less cytotoxicity; PDxO 3D drug screen, 96 h, CTG-3D normalised to day-0 seeding control.; details: 100 µM; days in culture: 176
test_readout: CTG-3D luminescence at 96 h

Use these answered entries as a reference point.
{"compound": "CC(C)n1nc(-c2ccc3oc(N)nc3c2)c2c(N)ncnc21", "CTG-3D luminescence at 96 h": 0.0926}
{"compound": "CC(=O)O[C@H]1C(=O)[C@@]2(C)[C@H]([C@H](OC(=O)c3ccccc3)[C@]3(O)C[C@H](OC(=O)[C@H](O)[C@@H](NC(=O)c4ccccc4)c4ccccc4)C(C)=C1C3(C)C)[C@]1(OC(C)=O)CO[C@@H]1C[C@@H]2O", "CTG-3D luminescence at 96 h": 0.34}
{"compound": "Cc1cc(Nc2ncc(Cl)c(Nc3ccccc3S(=O)(=O)C(C)C)n2)c(OC(C)C)cc1C1CCNCC1", "CTG-3D luminescence at 96 h": -0.00642}
{"compound": "Nc1ccn([C@@H]2O[C@H](CO)[C@@H](O)C2(F)F)c(=O)n1", "CTG-3D luminescence at 96 h": 0.25}

Now consider the entry below.
Query string: Which CTG-3D luminescence at 96 h value belongs to C[C@]12CC[C@@H]3c4ccc(O)cc4C[C@@H](CCCCCCCCC[S+]([O-])CCCC(F)(F)C(F)(F)F)[C@H]3[C@@H]1CC[C@@H]2O (stereo not given in full) ?
Result string: 2.18

---

system: HCI-002 (organoid from a triple-negative breast cancer xenograft); assay: CTG-3D luminescence at 96 h relative to day-0 seeding control (ratio to day 0); higher = more growth / less cytotoxicity; PDxO 3D drug screen, 96 h, CTG-3D normalised to day-0 seeding control.; conditions: 1 µM; days in culture: 82
test_readout: CTG-3D luminescence at 96 h

{"test_smiles": "C[C@H](NC(=O)CCC(F)(F)F)C(=O)N[C@@H]1C(=O)N(CCO)c2ncccc2-c2ccccc21", "assay_value": 2.76}

Query string: What CTG-3D luminescence at 96 h value was documented for this molecule, COc1cccc2c1C(=O)c1c(O)c3c(c(O)c1C2=O)C[C@@](O)(C(=O)CO)C[C@@H]3O[C@H]1C[C@H](N)[C@H](O)[C@H](C)O1 ?
Result string: 0.999

Query string: Need CTG-3D luminescence at 96 h, item CS(=O)(=O)c1ccc(C(=O)Nc2ccc(Cl)c(-c3ccccn3)c2)c(Cl)c1
Result string: 2.51

Query string: Any idea what its CTG-3D luminescence at 96 h is? The molecule is Cc1cc(Nc2ncnc3ccc(NC4=NC(C)(C)CO4)cc23)ccc1Oc1ccn2ncnc2c1
Result string: 2.75

Query string: I'd like to know its CTG-3D luminescence at 96 h. The molecule in question is NC(=O)c1cccc2cn(-c3ccc([C@@H]4CCCNC4)cc3)nc12
Result string: 1.29

Query string: Name the reported CTG-3D luminescence at 96 h value associated with the molecule CCN1CCN(Cc2ccc(Nc3ncc(F)c(-c4cc(F)c5nc(C)n(C(C)C)c5c4)n3)nc2)CC1
Result string: 1.8

Query string: Fill in the blank: the reported CTG-3D luminescence at 96 h of Cc1cc(Nc2ncc(Cl)c(Nc3ccccc3S(=O)(=O)C(C)C)n2)c(OC(C)C)cc1C1CCNCC1 is ____.
Result string: 1.76

Query string: What value of CTG-3D luminescence at 96 h has been reported for the following molecule? COc1cc2c(Oc3ccc4[nH]c(C)cc4c3F)ncnc2cc1OCCCN1CCCC1
Result string: 2.64
